Biological target: Calpain-1 catalytic subunit (Homo sapiens) (UniProt P07384)
Sequence (P07384 whole entry): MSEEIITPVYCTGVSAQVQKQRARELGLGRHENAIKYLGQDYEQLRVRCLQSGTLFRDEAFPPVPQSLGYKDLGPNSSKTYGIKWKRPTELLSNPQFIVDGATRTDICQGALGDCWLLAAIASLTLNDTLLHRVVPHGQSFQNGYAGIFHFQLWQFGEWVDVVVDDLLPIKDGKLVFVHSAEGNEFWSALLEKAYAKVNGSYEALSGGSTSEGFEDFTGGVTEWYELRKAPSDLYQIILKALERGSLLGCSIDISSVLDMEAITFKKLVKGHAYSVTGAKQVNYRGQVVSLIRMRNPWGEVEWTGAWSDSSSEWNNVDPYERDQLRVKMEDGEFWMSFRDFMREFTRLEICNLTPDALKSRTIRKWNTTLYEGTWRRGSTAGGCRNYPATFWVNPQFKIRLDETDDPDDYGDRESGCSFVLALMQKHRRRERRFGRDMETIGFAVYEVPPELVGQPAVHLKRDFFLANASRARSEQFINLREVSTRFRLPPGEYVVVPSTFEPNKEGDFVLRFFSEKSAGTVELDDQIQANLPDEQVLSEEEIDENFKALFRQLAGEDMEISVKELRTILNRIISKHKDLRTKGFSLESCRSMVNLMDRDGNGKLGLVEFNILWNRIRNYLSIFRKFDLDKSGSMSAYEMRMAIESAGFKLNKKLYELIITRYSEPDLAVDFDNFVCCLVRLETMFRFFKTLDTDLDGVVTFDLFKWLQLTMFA
Assay: Compound was tested for inhibitory activity against recombinant human Calpain 1
*1 amine or outer side, *2 acyl side, *3 side chain or, on linkers, in order; H or OH if unused. Where a SMILES comes first, the peptide text is derived from it. [ ]: non-standard residue; d: D form. The star is where a group is joined. ξ: configuration not given here. ξF = NC(Cc1ccccc1)C(=O)O; Cbz = O=C(OCc1ccccc1)*; Boc = CC(C)(C)OC(=O)*; CO = O=C([*:1])[*:2]; NHBn = c1ccc(CN*)cc1; ξAbu = CCC(N)C(=O)O; CH2F = FC*
reported.property: K obs / 1 (M⁻¹ s⁻¹)

Completed entries (count: 4):
[[record]]
compound = "CC(C)C[C@H](NC(=O)OCc1ccccc1)C(=O)NC(Cc1ccccc1)C(=O)CF (stereo partly drawn) (Cbz-Leu-[ξF]-CH2F)"
reported_measurement = 136000

[[record]]
compound = "CC(C)C[C@H](NS(=O)(=O)N1CCOCC1)C(=O)NC(Cc1ccccc1)C(=O)CF (stereo partly specified)"
reported_measurement = 67200

[[record]]
compound = "CC(C)C[C@H](NC(=O)OC(C)(C)C)C(=O)NC(Cc1ccccc1)C(=O)CF (stereo partly drawn) (Boc-Leu-[ξF]-CH2F)"
reported_measurement = 68600

[[record]]
compound = "CCC(NC(=O)[C@H](CC(C)C)NC(=O)OCc1ccccc1)C(=O)CF (stereo partly drawn) (Cbz-Leu-[ξAbu]-CH2F)"
reported_measurement = 24200


1. CC(C)C[C@H](NC(=O)[C@H]1O[C@@H]1C(=O)O)C(=O)NCCCCN=C(N)N
2. CC(C)C[C@H](NC(=O)NCc1ccccc1)C(=O)NC(Cc1ccccc1)C(=O)CF (stereo partly specified) ({NHBn-CO}-Leu-[ξF]-CH2F)
When 1 and 2 are compared, which has the higher number for K obs / 1? Give the label of your selection.
2
